B1: LINE1-full (parent)
chain: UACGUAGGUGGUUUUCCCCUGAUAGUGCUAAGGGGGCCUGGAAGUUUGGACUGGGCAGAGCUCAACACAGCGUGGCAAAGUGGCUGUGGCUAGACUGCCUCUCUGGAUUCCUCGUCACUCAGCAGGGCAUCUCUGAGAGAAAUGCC

- Variants of: B1
- Test Summary: self-cleavage, relative activity (ratio to wild type); higher = more cleavage; in vitro, sequencing; the parent is a self-cleaving ribozyme
Label rule, in plain words: self-cleavage of 0.8 and up is YES, under 0.8 is NO.

| Mutations | Label Class |
| --- | --- |
| U73A G88A | NO |
| A2G U134A | YES |
| A94G U143C | NO |
| G7A A142G | YES |
| U9C A136G | YES |
| U46G U115C | YES |
| U45A U100C | YES |
| A2U C56A | NO |
| U15A U52C | YES |
| G10A U45C | YES |
| U115A U134A | YES |
| U23C G54A | NO |
| A42U C128G | YES |
| U62C | NO |
| C110A U119C | YES |
| U20A U109C | YES |
| A22G A64G | NO |
| G8A U119A | YES |
| A2G U12G | YES |
| A69G U91A | NO |
| C38U U134A | YES |
